Test system: Recombinant human PKC-delta (His-tagged 345-676) (Homo sapiens (Human), UniProt Q05655)
Sequence (Q05655 345-676): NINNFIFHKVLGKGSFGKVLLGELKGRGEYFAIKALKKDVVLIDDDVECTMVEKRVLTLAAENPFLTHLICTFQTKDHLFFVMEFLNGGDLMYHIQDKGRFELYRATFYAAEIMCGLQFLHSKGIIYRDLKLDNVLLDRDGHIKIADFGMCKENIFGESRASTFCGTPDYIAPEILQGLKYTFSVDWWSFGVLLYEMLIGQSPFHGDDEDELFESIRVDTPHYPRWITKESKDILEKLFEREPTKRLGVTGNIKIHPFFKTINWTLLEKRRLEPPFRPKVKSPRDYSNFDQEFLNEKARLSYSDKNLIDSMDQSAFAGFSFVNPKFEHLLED
Measurement notes: PKC-delta inhibition assay (HTRF KinEASE kit), PKC-theta/PKC-delta selectivity
Assay type: biochemical
Measurement parameters: ratio, PKC-theta over PKC-delta, HTRF assays
Counter-ions that a name gives are not always drawn.
# Lookup of reported PKC-theta/PKC-delta selectivity keyed by entry

| Compound | Test system | PKC-theta/PKC-delta selectivity |
| --- | --- | --- |
| CC1(C)C(=O)Nc2nccc(-c3nn([C@H]4CCNC4)c4cc(C(F)(F)F)ccc34)c21 | Recombinant human PKC-delta (His-tagged 345-676) (Homo sapiens (Human), UniProt Q05655) | 33 |
| CC[C@]1(C)C(=O)Nc2nccc(-c3nn([C@@H]4CCNC[C@@H]4F)c4ccc(F)cc34)c21 (single isomer, unassigned) | Recombinant human PKC-delta (His-tagged 345-676) (Homo sapiens (Human), UniProt Q05655) | 57 |
| C[C@@]1(O)C(=O)Nc2nccc(-c3nn(C4(CC#N)COC4)c4ccccc34)c21 (single isomer, unassigned) | Recombinant human PKC-delta (His-tagged 345-676) (Homo sapiens (Human), UniProt Q05655) | 33 |
| CC[C@@]1(C)C(=O)Nc2nccc(-c3nn([C@@H]4CCNC[C@@H]4F)c4ccc(F)cc34)c21 (single isomer, unassigned) | Recombinant human PKC-delta (His-tagged 345-676) (Homo sapiens (Human), UniProt Q05655) | 23 |
| C[C@@]1(O)C(=O)Nc2nccc(-c3nn(CC4CCNCC4)c4ccccc34)c21 (single isomer, unassigned) | Recombinant human PKC-delta (His-tagged 345-676) (Homo sapiens (Human), UniProt Q05655) | 24 |
| CC[C@@]1(C)C(=O)Nc2nccc(-c3nn([C@@H]4CCNC[C@@H]4F)c4ccccc34)c21 (single isomer, unassigned) | Recombinant human PKC-delta (His-tagged 345-676) (Homo sapiens (Human), UniProt Q05655) | 33 |
| CC1(C)C(=O)Nc2nccc(-c3nn([C@H]4CCCNC4)c4ccccc34)c21 | Recombinant human PKC-delta (His-tagged 345-676) (Homo sapiens (Human), UniProt Q05655) | 13 |
| CC1(O)C(=O)Nc2nccc(-c3nn(C4(CC#N)CCC4)c4ccccc34)c21 (stereo not drawn) | Recombinant human PKC-delta (His-tagged 345-676) (Homo sapiens (Human), UniProt Q05655) | 6 |
| CC[C@@]1(C)C(=O)Nc2nccc(-c3nn([C@H]4CCNC4)c4ccccc34)c21 (single isomer, unassigned) | Recombinant human PKC-delta (His-tagged 345-676) (Homo sapiens (Human), UniProt Q05655) | 21 |
| CC1(O)C(=O)Nc2nccc(-c3cn(C4CCNCC4)c4ccccc34)c21 (stereo not drawn) | Recombinant human PKC-delta (His-tagged 345-676) (Homo sapiens (Human), UniProt Q05655) | 11 |
| CC1(C)C(=O)Nc2nccc(-c3nn(C4CCNCC4)c4cc(F)ccc34)c21 | Recombinant human PKC-delta (His-tagged 345-676) (Homo sapiens (Human), UniProt Q05655) | 22 |
| CC[C@]1(O)C(=O)Nc2nccc(-c3nn(C4(CC#N)CCC4)c4ccccc34)c21 (single isomer, unassigned) | Recombinant human PKC-delta (His-tagged 345-676) (Homo sapiens (Human), UniProt Q05655) | 9 |
| C[C@@]1(O)C(=O)Nc2nccc(-c3nn(C4(CC#N)CCC4)c4cc(F)ccc34)c21 (single isomer, unassigned) | Recombinant human PKC-delta (His-tagged 345-676) (Homo sapiens (Human), UniProt Q05655) | 11 |
| C[C@@]1(O)C(=O)Nc2nccc(-c3nn(C4CCNCC4)c4ccccc34)c21 (single isomer, unassigned) | Recombinant human PKC-delta (His-tagged 345-676) (Homo sapiens (Human), UniProt Q05655) | 5 |
| CC1(O)C(=O)Nc2nccc(-c3ccn(C4CCNCC4)n3)c21 (stereo not drawn) | Recombinant human PKC-delta (His-tagged 345-676) (Homo sapiens (Human), UniProt Q05655) | 4 |
| COCc1cc(-c2ccnc3[nH]c(=O)[nH]c23)cn1C1CCNCC1 | Recombinant human PKC-delta (His-tagged 345-676) (Homo sapiens (Human), UniProt Q05655) | 2 |
| CC1(O)C(=O)Nc2nccc(-c3nn(C4CCNCC4)c4ccccc34)c21 (stereo not drawn) | Recombinant human PKC-delta (His-tagged 345-676) (Homo sapiens (Human), UniProt Q05655) | 11 |
| CC1(C)C(=O)Nc2nccc(-c3nn([C@H]4CCNC4)c4ccccc34)c21 [Example 16, Dihydrochloride] | Recombinant human PKC-delta (His-tagged 345-676) (Homo sapiens (Human), UniProt Q05655) | 18 |
| CC1(C)C(=O)Nc2nccc(-c3nn([C@@H]4CCNC4)c4ccccc34)c21 | Recombinant human PKC-delta (His-tagged 345-676) (Homo sapiens (Human), UniProt Q05655) | 14 |
| CC1(O)C(=O)Nc2nccc(-c3nn([C@@H]4CCNC[C@@H]4F)c4ccccc34)c21 (stereo partly drawn) | Recombinant human PKC-delta (His-tagged 345-676) (Homo sapiens (Human), UniProt Q05655) | 12 |
| CC1(C)C(=O)Nc2nccc(-c3nn([C@@H]4CCCNC4)c4ccccc34)c21 | Recombinant human PKC-delta (His-tagged 345-676) (Homo sapiens (Human), UniProt Q05655) | 9 |
